Taken from ChEMBL document CHEMBL3864146.

# EXPERIMENTAL_DETAILS: Cytotoxicity against HEK cells assessed as cell viability at 14 ug/ml after 48 hrs by CellTiter-Glo assay relative to control
# Assay type: toxicity, cell-based, HEK293
# ASSAY_CONDITIONS: human, read-out: Activity
READOUT_TYPE: viability at 48 h, 14 ug/ml (%)
Respond numerically; units are % and should not be typed.

Q: Return reported viability at 48 h, 14 ug/ml; argument: CCCCCCCCCCCCOc1ccc2[nH]cc(CCN)c2c1.Cl
A: 0.2

* * *

# EXPERIMENTAL_DETAILS: Cytotoxicity against HEK cells assessed as cell viability at 2.6 ug/ml after 24 hrs by CellTiter-Glo assay relative to control
# Type: toxicity, cell-based, HEK293
# ASSAY_CONDITIONS: human, read-out: Activity
READOUT_TYPE: viability at 24 h, 2.6 ug/ml (%)
Respond numerically; units are % and should not be typed.

Q: Return reported viability at 24 h, 2.6 ug/ml; argument: CCCCCCCCCOc1cccc(CCN)c1
A: 3.4

* * *

Listed below: MIC values for each entry.
# System: Escherichia coli
# EXPERIMENTAL_DETAILS: Adjuvant activity assessed as potentiation of chloramphenicol-induced antibacterial activity against Escherichia coli BW25113 at 0.25 times MIC after 16 to 18 hrs by checkerboard assay (reference value: 8 ng/ml)
# Assay type: functional
Respond numerically; units are ng/mL and should not be typed.

Q: Return reported MIC; argument: CCCCCCOc1ccc2[nH]cc(CCN)c2c1.Cl
A: 4

Q: Return reported MIC; argument: CCCCCCCCCOc1ccc2[nH]cc(CCN)c2c1.Cl
A: 8

Q: Return reported MIC; argument: CCCCCCCCCCCCOc1ccc2[nH]cc(CCN)c2c1.Cl
A: 1

Q: Return reported MIC; argument: CCCCCCCCCOc1cccc(CCN)c1
A: 8

Q: Return reported MIC; argument: CCCCCCCCCCOc1ccc2[nH]cc(CCN)c2c1.Cl
A: 4

* * *

# EXPERIMENTAL_DETAILS: Cytotoxicity against HEK cells assessed as cell viability at 21 ug/ml after 48 hrs by CellTiter-Glo assay relative to control
# Format: toxicity, cell-based, HEK293
# ASSAY_CONDITIONS: human, read-out: Activity
READOUT_TYPE: viability at 48 h, 21 ug/ml (%)
Respond numerically; units are % and should not be typed.

Q: Return reported viability at 48 h, 21 ug/ml; argument: CCCCCCOc1ccc2[nH]cc(CCN)c2c1.Cl
A: 0

* * *

# EXPERIMENTAL_DETAILS: Cytotoxicity against HEK cells assessed as cell viability at 2.6 ug/ml after 48 hrs by CellTiter-Glo assay relative to control
# Assay type: toxicity, cell-based, HEK293
# ASSAY_CONDITIONS: human, read-out: Activity
READOUT_TYPE: viability at 48 h, 2.6 ug/ml (%)
Respond numerically; units are % and should not be typed.

Q: Return reported viability at 48 h, 2.6 ug/ml; argument: CCCCCCCCCOc1cccc(CCN)c1
A: 1.8

* * *

# EXPERIMENTAL_DETAILS: Cytotoxicity against HEK cells assessed as cell viability at 10.5 ug/ml after 48 hrs by CellTiter-Glo assay relative to control
# Assay type: toxicity, cell-based, HEK293
# ASSAY_CONDITIONS: human, read-out: Activity
READOUT_TYPE: viability at 48 h, 10.5 ug/ml
Put down the number, then write its unit next to it.

Q: Return reported viability at 48 h, 10.5 ug/ml; argument: CCCCCCOc1ccc2[nH]cc(CCN)c2c1.Cl
A: 0%
